system: HepG2; assay: cell viability relative to DMSO; higher = less toxic; settings: 72 h; 10000 nM
Outcome Measure: cell viability
Quote the value and follow it with the unit of measurement.

Exercise: Param item = CC(=O)Oc1ccccc1C(=O)Nc1ncc([N+](=O)[O-])s1 [nitazoxanide] ; retrieve measured cell viability.
Solution: 65.3%

Exercise: What about N#Cc1cccc(C(=O)Nc2cc(-c3ccccc3)nn2-c2ccccc2)c1 [CDPPB] ?
Solution: 104%

Exercise: Same for c1ccc(C2CC2)c(OCC2=NCCN2)c1 [cirazoline]
Solution: 110%

For each of the compounds below, note its cell viability.
1. O=C1[C@H](CC[C@H](O)c2ccc(F)cc2)[C@@H](c2ccc(O)cc2)N1c1ccc(F)cc1 [ezetimibe]
2. COc1cc2c(NC3CCN(C(C)C)CC3)nc(C3CCCCC3)nc2cc1OCCCN1CCCC1 [UNC0638]
3. C=C1C(=O)O[C@@H]2[C@H]3C(C)=CC[C@@]34O[C@@]4(C)CC[C@@H]12 [arglabin]
4. CCN1C[C@]2(OC(=O)c3ccccc3NC(C)=O)CC[C@H](OC)[C@@]34[C@@H]2C[C@@H]([C@@H]13)[C@@]1(O)C[C@H](OC)[C@H]2C[C@@H]4[C@]1(O)[C@H]2OC [lappaconite]
5. CC(C)C[C@H](NC(=O)[C@@H](COC(C)(C)C)NC(=O)[C@H](Cc1ccc(O)cc1)NC(=O)[C@H](CO)NC(=O)[C@H](Cc1c[nH]c2ccccc12)NC(=O)[C@H](Cc1cnc[nH]1)NC(=O)[C@@H]1CCC(=O)N1)C(=O)N[C@@H](CCCNC(=N)N)C(=O)N1CCC[C@H]1C(=O)NNC(N)=O [goserelin-acetate]

Solution:
1. 88.8%
2. 28.9%
3. 56.1%
4. 107%
5. 98.7%

Consider the following items and state reported cell viability for each.
1. O=C1NC(=O)C(=Cc2ccc(-c3ccc(F)cc3)o2)S1 (stereo in doubt)
2. CCC(=O)NC1CCc2cccc(OC)c2C1 (configuration not stated) [8-M-PDOT]

Solution:
1: 100%; 2: 102%
